Recorded viscosity by entry
Experiment Description: xn = mol fraction of the nth substance listed
Run Conditions: 303.15 K; 101.3 kPa; Liquid; Concentric cylinders viscometry; x1 = 0.5
Write the value in mPa·s as a bare number.

Completed entries (count: 4):
c1nnn[nH]1 [1H-tetrazole] + CCCC[N+](CCCC)(CCCC)CCCC.[Br-] ... 279.15
c1nnn[nH]1 [1H-tetrazole] + CCCC[P+](CCCC)(CCCC)CCCC.[Cl-] ... 40.22
c1nnn[nH]1 [1H-tetrazole] + CCCC[P+](CCCC)(CCCC)CCCC.[Br-] ... 68.26
c1nc[nH]n1 [1H-1,2,4-triazole] + CCCC[P+](CCCC)(CCCC)CCCC.[Cl-] ... 67.23

Turning to the following molecule.
Q: viscosity for c1nnn[nH]1 [1H-tetrazole] + CCCC[N+](CCCC)(CCCC)CCCC.[Cl-] ?
A: 87.88
